Record form. Attribute: Her2 level. Fill in for each entry.
- Assayed Target: Receptor tyrosine-protein kinase erbB-2 (Homo sapiens)
- Assay Notes: reducers of endogenous Her2 protein level, primary screen, SKBR3 breast tumor cells, AlphaScreen, ATP viability (AID 461);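 note: lower value means less Her2 protein in the cells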
- Experimental Conditions: 18-24 h, at 10 µM, stronger effect = lower value
Numbers only, in %.

Worked examples follow.
input: Please provide the recorded Her2 level for O=c1[nH]cnc2c1nc(SCc1ccccc1)n2C1OC(CO)C(O)C1O (stereo unspecified) , tested on Receptor tyrosine-protein kinase erbB-2 (Homo sapiens).
output: 88

input: Item: "Cc1c(NS(=O)(=O)c2ccc3c(c2)c(=O)n(C)c(=O)n3C)c(=O)n(-c2ccccc2)n1C" Test system: Receptor tyrosine-protein kinase erbB-2 (Homo sapiens) Read-out: Her2 level Value: ?
output: 85.5

input: What reported Her2 level corresponds to "O=C(O)CCCC(=O)Nc1nc(-c2ccc(F)cc2)cs1" on Receptor tyrosine-protein kinase erbB-2 (Homo sapiens)?
output: 75.5

input: Give the reported Her2 level for "CC1(C)Cc2noc(N)c2C(C)(C)N1O" (system: Receptor tyrosine-protein kinase erbB-2 (Homo sapiens)).
output: 91

input: Find the measured Her2 level: item CC(=O)Nc1ccc(OCC(O)Cn2nc(C)nc2C)cc1 (stereo unspecified) , target or system Receptor tyrosine-protein kinase erbB-2 (Homo sapiens).
output: 86.5

input: Entry "O=S(=O)(NCc1cccnc1)c1cccc2nsnc12" , system Receptor tyrosine-protein kinase erbB-2 (Homo sapiens): what Her2 level was measured?
output: 83.5

Items follow; give Her2 level for each.
1. CCN(c1cccc(C)c1)S(=O)(=O)c1ccc2[nH]c(=O)c(=O)[nH]c2c1
2. O=C(Nc1cccc(C(F)(F)F)c1)c1cccnc1N1CCCC1

output:
1: 75; 2: 102

List reported Her2 level for each of these compounds:
1. CC1(C)CC(=O)C2=C(C1)OC(N)=C(C#N)C2C1CC=CCC1 (stereo unspecified)
2. COc1ccc(Cl)cc1S(=O)(=O)n1cnc2ccccc21
3. ON1C2CCCCC2N(O)C1c1c(F)c(F)c(F)c(F)c1F (stereo unspecified)

output:
1: 93; 2: 106; 3: 79

Data credit: PubChem BioAssay
